- MEASURED_ON: UniProtKB A0A0H3JXR3
- PROTOCOL_TEXT: ITC binding to SaHPPK
- PARTICULARS: 298 K, calculated as -RT.lnKa
So I've got a bunch of compounds here, and I need their ΔG values.
Numbers only, in kcal/mol.

Would you please look over these solved cases?
- COMPOUND: "NCCCn1c(S)nc2nc(N)[nH]c(=O)c21 [21d, 7-(3-Aminopropyl)-8-mercaptoguanine]"
  ΔG, kcal/mol: -6.0
- COMPOUND: "N=C(N)NCCn1c(S)nc2nc(N)[nH]c(=O)c21 [21e, 7-(2-Guanidinoethyl)-8-mercaptoguanine]"
  ΔG, kcal/mol: -6.0
- COMPOUND: "Nc1nc2nc(S)n(CCO)c2c(=O)[nH]1 [21a, 7-(2-Hydroxyethyl)-8-mercaptoguanine]"
  ΔG, kcal/mol: -6.4

Here is another compound to look at.
I would be grateful if you could share the reported ΔG for NCCn1c(S)nc2nc(N)[nH]c(=O)c21 [21c, 7-(2-Aminoethyl)-8-mercaptoguanine] .
-6.2

====

So I've got a bunch of molecules here, and I need their TΔS values.
- MEASURED_ON: SaHPPK (Staphylococcus aureus, UniProt A0A0H3JXR3)
- Sequence (A0A0H3JXR3 entry or part of it): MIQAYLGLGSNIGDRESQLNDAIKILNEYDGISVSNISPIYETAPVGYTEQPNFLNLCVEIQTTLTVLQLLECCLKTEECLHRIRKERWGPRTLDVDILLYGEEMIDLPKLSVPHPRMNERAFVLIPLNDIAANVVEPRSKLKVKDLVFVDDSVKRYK
- PROTOCOL_TEXT: ITC binding to SaHPPK
- PARTICULARS: 298 K, calculated using ΔG = ΔH - TΔS
- Protocol: To corroborate the ligand binding affinities determined by SPR, and to determine the enthalpic and entropic contributions to the free energy of binding, ITC experiments were performed for selected compounds (21a and 21c–21e) (Table 2, Fig. S3). […] To investigate the factors contributing to the free energy of binding, we solved the structure of SaHPPK in complex with 21a. […]
Numbers only, in kcal/mol.

Would you please look over these solved cases?
- MOLECULE: "NCCCn1c(S)nc2nc(N)[nH]c(=O)c21 [21d, 7-(3-Aminopropyl)-8-mercaptoguanine]"
  MEASURED_ON: "SaHPPK (Staphylococcus aureus, UniProt A0A0H3JXR3)"
  TΔS (kcal/mol): -0.2
- MOLECULE: "N=C(N)NCCn1c(S)nc2nc(N)[nH]c(=O)c21 [21e, 7-(2-Guanidinoethyl)-8-mercaptoguanine]"
  MEASURED_ON: "SaHPPK (Staphylococcus aureus, UniProt A0A0H3JXR3)"
  TΔS (kcal/mol): 1.7
- MOLECULE: "Nc1nc2nc(S)n(CCO)c2c(=O)[nH]1 [21a, 7-(2-Hydroxyethyl)-8-mercaptoguanine]"
  MEASURED_ON: "SaHPPK (Staphylococcus aureus, UniProt A0A0H3JXR3)"
  TΔS (kcal/mol): -4.1

I would be grateful if you could share the reported TΔS for NCCn1c(S)nc2nc(N)[nH]c(=O)c21 [21c, 7-(2-Aminoethyl)-8-mercaptoguanine] .
0.4

====

- MEASURED_ON: SaHPPK (Staphylococcus aureus, UniProt A0A0H3JXR3)
- PROTOCOL_TEXT: ITC binding to SaHPPK
- PARTICULARS: 298 K
- Procedure: To corroborate the ligand binding affinities determined by SPR, and to determine the enthalpic and entropic contributions to the free energy of binding, ITC experiments were performed for selected compounds (21a and 21c–21e) (Table 2, Fig. S3). […] To investigate the factors contributing to the free energy of binding, we solved the structure of SaHPPK in complex with 21a. […]
ENDPOINT_NAME: N (binding stoichiometry)
One number for each entry.

- COMPOUND: "NCCn1c(S)nc2nc(N)[nH]c(=O)c21 [21c, 7-(2-Aminoethyl)-8-mercaptoguanine]"
  MEASURED_ON: "SaHPPK (Staphylococcus aureus, UniProt A0A0H3JXR3)"
  READING: 1.2

Okay, here is my list. What is N (binding stoichiometry) for each of these?
1. NCCCn1c(S)nc2nc(N)[nH]c(=O)c21 [21d, 7-(3-Aminopropyl)-8-mercaptoguanine]
2. Nc1nc2nc(S)n(CCO)c2c(=O)[nH]1 [21a, 7-(2-Hydroxyethyl)-8-mercaptoguanine]
3. N=C(N)NCCn1c(S)nc2nc(N)[nH]c(=O)c21 [21e, 7-(2-Guanidinoethyl)-8-mercaptoguanine]

1. 1.3
2. 0.8
3. 1.4
